target.or.system: T1, AFP158/HLA-A*02:01 complex (human)
T1 construct: biotinylated on the BSP by BirA for ELISA and panning; also called biotinylated AFP158/HLA-A*02:01 complex; Bio-AFP158
assay.name: SPR; vs AS170036 VL1VH1
measurement.label: Affinity increase

For orientation, consider the following solved cases.
Problem: For AS170036 VL1VH1-VHG56Y (scFv) scFv: QSALTQPRSVSGSPGQSVTISCAGTSSDVGSENYVSWYQQHPGKAPKLMIYQVNKRASGVPDRFSGSKSGNTASLTISGLQAEDEADYYCASYRSSDHNIVFGGGTKLTVLGGGGSGGGGSGGGGSEVQLVESGGGLVQPGGSLRLSCAASGFTFSSYAMSWVRQAPGKGLEWVSTINSGTYSPYYADSVKGRFTISRDNSKNTLYLQMNSLRAEDTAVYYCAKNFFDGSWFLGPPAMDYWGQGTLVTVSSHHHHHH , write its Affinity increase.
Result: > 2 fold

Problem: Note down Affinity increase recorded for AS170036 VL1VH1-VLH98F (scFv) scFv: QSALTQPRSVSGSPGQSVTISCAGTSSDVGSENYVSWYQQHPGKAPKLMIYQVNKRASGVPDRFSGSKSGNTASLTISGLQAEDEADYYCASYRSSDFNIVFGGGTKLTVLGGGGSGGGGSGGGGSEVQLVESGGGLVQPGGSLRLSCAASGFTFSSYAMSWVRQAPGKGLEWVSTINSGTGSPYYADSVKGRFTISRDNSKNTLYLQMNSLRAEDTAVYYCAKNFFDGSWFLGPPAMDYWGQGTLVTVSSHHHHHH
Result: > 2 fold

// below: Affinity increase requested for another binder
Problem: Note Affinity increase for the binder shown: AS170036 VL1VH1-VLH98V (scFv) scFv: QSALTQPRSVSGSPGQSVTISCAGTSSDVGSENYVSWYQQHPGKAPKLMIYQVNKRASGVPDRFSGSKSGNTASLTISGLQAEDEADYYCASYRSSDVNIVFGGGTKLTVLGGGGSGGGGSGGGGSEVQLVESGGGLVQPGGSLRLSCAASGFTFSSYAMSWVRQAPGKGLEWVSTINSGTGSPYYADSVKGRFTISRDNSKNTLYLQMNSLRAEDTAVYYCAKNFFDGSWFLGPPAMDYWGQGTLVTVSSHHHHHH
Result: > 2 fold
